IP values for the compounds below.
organism: Rattus norvegicus; assay: Open TG-GATES - Regimen: Single; type: toxicity, organism-based, Sprague-Dawley; parameters: regimen Single, gender Male, age 6 weeks; conditions: in vivo, po, 0 mg/kg, 3 h, tissue Plasma, route gavage, dose level Control
Give the value in mg/dL but do not write mg/dL after it.

- compound: "CN(C)CCCN1c2ccccc2Sc2ccc(Cl)cc21"
  assayReadout: "IP"
  reported: 8.5
- compound: "CC(=O)[C@@]1(O)CC[C@H]2[C@@H]3C=C(Cl)C4=CC(=O)CC[C@]4(C)[C@H]3CC[C@@]21C"
  assayReadout: "IP"
  reported: 8.1
- compound: "CN(CCOc1ccc(CC2SC(=O)NC2=O)cc1)c1ccccn1.O=C(O)/C=C\\C(=O)O (stereo not given) [ROSIGLITAZONE MALEATE]"
  assayReadout: "IP"
  reported: 8.6
- compound: "CCN(CC)C(=S)SSC(=S)N(CC)CC"
  assayReadout: "IP"
  reported: 7.8

Please fill in: IP reported for NS(=O)(=O)c1cc(C(=O)O)c(NCc2ccco2)cc1Cl [FUROSEMIDE] = 9

Sourced from ChEMBL document CHEMBL3885861
